From: ChEMBL document CHEMBL1201862

tested on: PC-3; assay: NCI tumour cell line growth inhibition, 48 h
The source made the active and inactive calls. No stated cut-off is given here; in the data, active = GI50 up to about 1.1 µM and inactive = higher.
Would you kindly list GI50 for each of these molecules?

So what's the measured GI50 for this one? COc1ccc(C2C3=C(COC3=O)OC(C)(C)Oc3cc4c(cc32)OCO4)cc1OC (stereo not given)
28.1 µM (inactive)

So what's the measured GI50 for this one? N#CCCC(C=O)(CCC#N)CCC#N
> 100 µM (inactive)

So what's the measured GI50 for this one? COc1ccc(C(NCCNC(c2ccc(OC)c(OC)c2)c2cc3c(cc2O)OCO3)c2cc3c(cc2O)OCO3)cc1OC (stereo not given)
2.47 µM (inactive)

So what's the measured GI50 for this one? CC1(C)C2CCC1(C)C(NC(=O)COCCOCC(N)=O)C2 (stereo not given)
> 100 µM (inactive)

So what's the measured GI50 for this one? CC(=O)OC12c3ccccc3-c3ccccc3C1C1C(=O)N(C)C(=O)C12Cl (stereo not given)
> 10 µM (inactive)

----------
test system: HT-29; assay: NCI tumour cell line growth inhibition, 48 h
The source made the active and inactive calls. Cut-off read from the data, not from the text of the source: active = GI50 up to about 1.1 µM and inactive = higher.
Select the correct class. Options are active, inactive and nothing else.

Which outcome did this test record for the molecule CNc1nc(=O)c(C#N)c(-c2ccc(C)cc2)s1 ?
inactive

Which outcome did this test record for the molecule CC1=NN(C(=O)c2ccc(Cl)cc2)C(=O)/C1=C/c1c(O)cc(O)c2ccccc12 ?
inactive

Which outcome did this test record for the molecule CC(=O)Oc1ccc2c(c1)CC[C@@H]1C2[C@@H](O[N+](=O)[O-])C[C@@]2(C)C1CC[C@@H]2O[N+](=O)[O-] (some centres undefined) ?
inactive

Which outcome did this test record for the molecule CCN(CC)CCCNc1nc(=O)[nH]c(C)c1C(=O)Nc1c2ccccc2nc2ccccc12 ?
inactive

Which outcome did this test record for the molecule CC[C@]12C=CCN3CCC4(c5cc(/N=N/c6ccc([N+](=O)[O-])cc6)c(OC)cc5N(C)[C@H]4[C@@](O)(C(=O)OC)[C@@H]1OC(C)=O)[C@@H]32 (some centres undefined) ?
inactive

Which outcome did this test record for the molecule CCOC(=O)C1=C(c2ccccc2)NC(c2ccccc2)=C(C(=O)OCC)c2c1c(=O)cc[nH]c2=O ?
inactive

Which outcome did this test record for the molecule COC1(OC)C(/C(N)=C\O)=NC(C)(C)N1O ?
inactive

Which outcome did this test record for the molecule OCCNc1ncnc2[nH]cnc12 ?
inactive

Which outcome did this test record for the molecule COc1ccc2c(c1)C(N)=C(Cc1ccncc1)C2=O ?
inactive

Which outcome did this test record for the molecule O=S(=O)(c1ccccc1)[C@@H]1[C@H]2C=C[C@](CS)(O2)[C@H]1S(=O)(=O)c1ccccc1 ?
inactive

Which outcome did this test record for the molecule c1ccc2c(c1)nnn2C1CCCCO1 (centres undefined) ?
inactive

Which outcome did this test record for the molecule N#CCCC(C=O)(CCC#N)CCC#N ?
inactive

Which outcome did this test record for the molecule C/C(=C\C(=O)Nc1ccc2[nH]nnc2c1)Nc1ccc2[nH]nnc2c1 ?
inactive

Which outcome did this test record for the molecule [N-]=[N+]=CC(=O)COC(=O)c1ccccc1 ?
inactive

Which outcome did this test record for the molecule O=c1cccccc1O.O=c1cccccc1O.O=c1cccccc1O.[SiH4] ?
inactive

Which outcome did this test record for the molecule CCc1cccc(C)c1NC(=O)C(=O)Cc1nc2ccccc2o1 ?
inactive

Which outcome did this test record for the molecule COC(=O)C(Cc1ccccc1)C(=O)NC(CNC(=O)OCc1ccccc1)C(=O)OCc1ccccc1 (centres undefined) ?
inactive

Which outcome did this test record for the molecule O=C(Nc1cnc(O)nc1O)C(Cl)Cl ?
inactive

Which outcome did this test record for the molecule COC(=O)C1=C(C)N(NC(N)=O)C2(N)N(NC(N)=O)C(C)=C(C(=O)OC)C12C(=O)OC (centres undefined) ?
inactive

Which outcome did this test record for the molecule Sc1nn2c(COc3cccc(OCc4nnc5sc(S)nn45)c3)nnc2s1 ?
inactive

Which outcome did this test record for the molecule c1ccc2cc3c(cc2c1)OP1(Oc2cccc4cccnc24)(O3)Oc2cc3ccccc3cc2O1 ?
inactive

Which outcome did this test record for the molecule CCCCc1ccc(Nc2nc(SC)c3[nH]cnc3n2)cc1 ?
inactive

Which outcome did this test record for the molecule COc1ccc2c(=O)c3c([nH]c2c1)OCC3=O ?
inactive

Which outcome did this test record for the molecule CC1SC2=NC3=C(c4ccccc4C3=O)C(c3ccc(Br)cc3)N2C1=O (centres undefined) ?
inactive

Which outcome did this test record for the molecule CC1C(=NO)C(C)C(c2ccccc2)N(N=O)C1c1ccccc1 (centres undefined) ?
inactive

Which outcome did this test record for the molecule COc1ccc2c(c1)c(=O)c1c(NCCN(C)C)ccc3c(=O)n(CCN(C)C)c(=O)n2c31 ?
active

Which outcome did this test record for the molecule C/C(=N/NC(=S)Nc1cccc(Cl)c1)c1cccc(/C(C)=N\NC(=S)Nc2cccc(Cl)c2)n1 ?
inactive

Which outcome did this test record for the molecule Nn1c(SCC(=O)O)nc2ccccc2c1=O ?
inactive

Which outcome did this test record for the molecule CC(=O)/C=C/c1cccc(N=S)c1 ?
inactive

Which outcome did this test record for the molecule O=C(Nc1nc2ccccc2n1Cc1ccccc1)NC12CC3CC(CC(C3)C1)C2 ?
inactive

Which outcome did this test record for the molecule CCC/C(=N\NC(=S)N1CCN(c2ccccn2)CC1)c1ccccn1 ?
active

Which outcome did this test record for the molecule N[C@H]1CCc2c1nc1c(c2-c2ccccc2)CC[C@@H]1N ?
inactive

Which outcome did this test record for the molecule Cc1ccc(S(=O)(=O)NC(=O)NCC(N)=O)cc1 ?
inactive

Which outcome did this test record for the molecule Cc1ccc(C(=O)C(C2=Nc3nnc(N)n3C2=O)C2=Nc3nnc(N)n3C2=O)cc1 ?
inactive

Which outcome did this test record for the molecule Cc1ccc([S+]([O-])c2cccs2)cc1 (centres undefined) ?
inactive

Which outcome did this test record for the molecule Cc1ccc(OC2CC(n3cnc4c(=O)[nH]c(Br)nc43)OC2Oc2ccc(C)cc2)cc1 (centres undefined) ?
inactive

Which outcome did this test record for the molecule O=C(Oc1cccc(Cl)c1)c1cc2cc(CCl)ccc2oc1=O ?
inactive

Which outcome did this test record for the molecule CC(=O)Nc1ccccc1Sc1ccccc1 ?
inactive

Which outcome did this test record for the molecule COC(=O)c1cccc2cccc(C(=O)Nc3ccc(C)cc3C)c12 ?
inactive

Which outcome did this test record for the molecule CC(C)=CCCC1(C)C2COC(=O)C21 (centres undefined) ?
inactive

Which outcome did this test record for the molecule COc1ccc(/C(=N\NC(=N)N)C(c2ccc(OC)cc2)C2OC(=O)c3ccccc32)cc1 (centres undefined) ?
inactive

Which outcome did this test record for the molecule COc1ccccc1NC(=S)N/N=C(/c1ccccc1)c1ccccn1 ?
active

Which outcome did this test record for the molecule COC(=O)C1CC23C=CCN4CC(C2C)C2(c5ccccc5NC12)C43 (centres undefined) ?
inactive

Which outcome did this test record for the molecule OC12CCCCCC1(N1CCOCC1)c1ccccc12 (centres undefined) ?
inactive
